# test details: qHTS of small molecules that selectively kill Giardia lamblia: Hit Validation.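 Further: viability measured as ATP content by luminescence so killing lowers signal; trophozoites exposed to compounds for 48 h anaerobically at 37 °C; nearly all actives have a fitted effect of over 65% in size.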
# particulars: Giardia lamblia trophozoite viability, dose-response; series mostly up to 38.3 µM
Out of some 1,300 compounds screened, about 1,000 (77%) were called active. About 7% were inconclusive and are not listed. The call rests on the fitted dose curve; in most records, active means well fitted inhibition curve with a large enough effect; inconclusive means small, poorly fitted or top-dose-only effect; inactive means no such curve, though single readings can be large or run the other way. The set was probably picked from earlier hits. This is one part of the list.
Labels: 1.0 for active, 0.0 for inactive

[[record]]
molecule = "O=[N+]([O-])c1nn(-c2ccccc2)n(O)c1=NCCc1ccccc1"
category = 1.0

[[record]]
molecule = "O=C(COC(=O)c1ccc(Br)o1)Nc1ncc([N+](=O)[O-])s1"
category = 1.0

[[record]]
molecule = "CCn1c(C)cc(C(=O)COC(=O)c2ccccc2[N+](=O)[O-])c1C"
category = 1.0

[[record]]
molecule = "COc1ccccc1C1OC2=C(Nc3ccc([N+](=O)[O-])cc3N2)C1=O (stereo unspecified)"
category = 1.0

[[record]]
molecule = "CC(=O)c1c(COC(=O)c2ccc(F)cc2)nc2ccccc2[n+]1[O-]"
category = 1.0

[[record]]
molecule = "CC(=O)c1c(COC(=O)c2ccccc2Cl)nc2ccccc2[n+]1[O-]"
category = 1.0

[[record]]
molecule = "COC(=O)Nc1nc2ccc(Sc3ccccc3)cc2[nH]1"
category = 1.0

[[record]]
molecule = "Clc1ccc2c(N/N=C/c3ccc(Br)cc3)ccnc2c1"
category = 1.0

[[record]]
molecule = "CN1C(=O)/C(=C/c2ccc(O)c([N+](=O)[O-])c2)N(C)C1=S"
category = 1.0

[[record]]
molecule = "O=C(COC(=O)c1ccccc1)Nc1ncc([N+](=O)[O-])s1"
category = 1.0

[[record]]
molecule = "CN(C)C(=O)C[n+]1ccc(C(N)=O)cc1"
category = 0.0


* * *

# test details: qHTS of small molecules that selectively kill Giardia lamblia: Hit Validation. Further: potency means the concentration at half of the fitted maximal effect.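 Further: viability measured as ATP content by luminescence so killing lowers signal; trophozoites exposed to compounds for 48 h anaerobically at 37 °C; nearly all actives have a fitted effect of over 65% in size.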
# particulars: Giardia lamblia trophozoite viability, dose-response; series mostly up to 38.3 µM
About 1,000 (77%) of roughly 1,300 compounds were called active. About 7% were inconclusive and are not listed. So high a share suggests a set chosen from earlier hits. The list shows a part of the results.
Measured Potency by item
experimental endpoint: Potency

[[record]]
molecule = "O=C1NC(=S)S/C1=C\\C=C\\c1ccc([N+](=O)[O-])o1"
result = "326 nM (active)"

[[record]]
molecule = "COc1cc2nc(N3CCCN(C)CC3)nc(NC3CCCCC3)c2cc1OC"
result = "650 nM (active)"

[[record]]
molecule = "N/C(=N\\O)c1ccc([N+](=O)[O-])s1"
result = "2900 nM (active)"

[[record]]
molecule = "O=C(Nc1ccc(N2CCCC2)c(Cl)c1)c1ccc([N+](=O)[O-])o1"
result = "1830 nM (active)"

[[record]]
molecule = "O=c1[nH]c2cccnc2n1-c1ccc([N+](=O)[O-])cc1"
result = "1830 nM (active)"

[[record]]
molecule = "O=C(Nc1ccc(N2CCOCC2)c(Cl)c1)c1ccc([N+](=O)[O-])o1"
result = "729 nM (active)"


* * *

# test details: qHTS of small molecules that selectively kill Giardia lamblia: Hit Validation. Further: potency means the concentration at half of the fitted maximal effect.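 Further: viability measured as ATP content by luminescence so killing lowers signal; trophozoites exposed to compounds for 48 h anaerobically at 37 °C; nearly all actives have a fitted effect of over 65% in size.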
# particulars: Giardia lamblia trophozoite viability, dose-response; series mostly up to 38.3 µM
Hit rate of the full screen: of about 1,300 compounds, about 1,000 (77%) were called active. Another 7% or so got no clear call; they are omitted. So high a share suggests a set chosen from earlier hits. The list shows a part of the results.
experimental endpoint: Potency

[[record]]
molecule = "O=[N+]([O-])c1ccc(CSc2nnc(-c3cnccn3)o2)cc1"
experimental_endpoint = "Potency"
result = "2310 nM (active)"

[[record]]
molecule = "CCOC(=O)c1c(NC(=O)CS(=O)(=O)c2cn(CC)c3ccccc23)sc2c1CCCCC2"
experimental_endpoint = "Potency"
result = "inactive"

[[record]]
molecule = "c1ccc(CNc2ncnc3ccccc23)cc1"
experimental_endpoint = "Potency"
result = "inactive"

[[record]]
molecule = "COc1ccc(OC)c2sc(N3CCN(C(=O)c4ccc([N+](=O)[O-])s4)CC3)nc12"
experimental_endpoint = "Potency"
result = "2590 nM (active)"

[[record]]
molecule = "CN1N/C(=C\\c2ccccc2)N=C2C(=O)N(C)C(=O)N=C21"
experimental_endpoint = "Potency"
result = "259 nM (active)"

[[record]]
molecule = "Cc1ccc(CSc2nc3ccncc3[nH]2)cc1"
experimental_endpoint = "Potency"
result = "259 nM (active)"

[[record]]
molecule = "O=[N+]([O-])c1ccc(CSc2nnc(-c3cccnc3)o2)cc1"
experimental_endpoint = "Potency"
result = "3650 nM (active)"

[[record]]
molecule = "CC1CCc2c(sc(NC(=O)Cn3cnc([N+](=O)[O-])n3)c2C(N)=O)C1 (configuration not stated)"
experimental_endpoint = "Potency"
result = "18300 nM (active)"

[[record]]
molecule = "O=C(NCC(c1ccc(F)cc1)N1CCOCC1)c1ccc([N+](=O)[O-])o1 (configuration not stated)"
experimental_endpoint = "Potency"
result = "1300 nM (active)"

[[record]]
molecule = "COc1ccc(N(Cc2ccccc2)C(=O)OC(C)(C)C)c(C(=O)N(C)OC)c1"
experimental_endpoint = "Potency"
result = "inactive"

[[record]]
molecule = "COc1cc2nc(N3CCN(C)CC3)nc(NC(C)C)c2cc1OC"
experimental_endpoint = "Potency"
result = "918 nM (active)"

[[record]]
molecule = "Cc1ccc(-n2nnnc2CNC(=O)c2ccc([N+](=O)[O-])o2)cc1C"
experimental_endpoint = "Potency"
result = "918 nM (active)"

[[record]]
molecule = "O=C(/C=C/c1ccc([N+](=O)[O-])cc1)Nc1ncc([N+](=O)[O-])s1"
experimental_endpoint = "Potency"
result = "650 nM (active)"

[[record]]
molecule = "O=C(c1ccc([N+](=O)[O-])o1)N1CCN(c2nc3ccc(F)cc3s2)CC1"
experimental_endpoint = "Potency"
result = "1830 nM (active)"

[[record]]
molecule = "CC1CCc2c(sc(NC(=O)CCCn3cnc([N+](=O)[O-])n3)c2C(N)=O)C1 (configuration not stated)"
experimental_endpoint = "Potency"
result = "4600 nM (active)"

[[record]]
molecule = "O=C(Cn1cnc2c(OCc3ccccc3)ncnc21)NCCCc1ccccc1"
experimental_endpoint = "Potency"
result = "inactive"

[[record]]
molecule = "O=[N+]([O-])c1cncc([N+](=O)[O-])c1Nc1cccc(O)c1"
experimental_endpoint = "Potency"
result = "3260 nM (active)"

[[record]]
molecule = "O=C1c2ccccc2C(=O)C1c1cc2ccccc2cn1"
experimental_endpoint = "Potency"
result = "1450 nM (active)"

[[record]]
molecule = "O=C(Nc1ncc([N+](=O)[O-])s1)c1cccc([N+](=O)[O-])c1"
experimental_endpoint = "Potency"
result = "290 nM (active)"

[[record]]
molecule = "O=C(Nc1ncc([N+](=O)[O-])s1)c1ccc2c(c1)OCO2"
experimental_endpoint = "Potency"
result = "259 nM (active)"

[[record]]
molecule = "O=[N+]([O-])c1cncc([N+](=O)[O-])c1Nc1ccccc1Cl"
experimental_endpoint = "Potency"
result = "5160 nM (active)"

[[record]]
molecule = "Cc1ccc(CC(=O)Nc2ncc([N+](=O)[O-])s2)cc1"
experimental_endpoint = "Potency"
result = "130 nM (active)"


* * *

# test details: qHTS of small molecules that selectively kill Giardia lamblia: Hit Validation. Further: potency means the concentration at half of the fitted maximal effect.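 Further: viability measured as ATP content by luminescence so killing lowers signal; trophozoites exposed to compounds for 48 h anaerobically at 37 °C; nearly all actives have a fitted effect of over 65% in size.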
# particulars: Giardia lamblia trophozoite viability, dose-response; series mostly up to 38.3 µM
About 1,000 (77%) of roughly 1,300 compounds were called active. Another 7% or so got no clear call; they are omitted. The set was probably picked from earlier hits. The list shows a part of the results.
experimental endpoint: Potency

[[record]]
molecule = "COc1ccc(C(=O)C(C)OC(=O)CNC(=O)c2ccco2)cc1 (stereo not drawn)"
result = "20500 nM (active)"

[[record]]
molecule = "CCOc1ccccc1NS(=O)(=O)c1c[nH]c(C(=O)OC)c1"
result = "inactive"

[[record]]
molecule = "Cc1cc(C(=O)N/N=C/c2ccc([N+](=O)[O-])o2)c(C)o1"
result = "579 nM (active)"

[[record]]
molecule = "CC12CN3CC(C)(CN(C1)C3c1ccc([N+](=O)[O-])o1)C2 (stereo not drawn)"
result = "1300 nM (active)"

[[record]]
molecule = "O=C(Nc1ccccc1Cl)c1ccc([N+](=O)[O-])o1"
result = "1300 nM (active)"

[[record]]
molecule = "COc1cc2c(cc1OC)-c1c(OC)c(OC)cc3ccnc(c13)C2=O"
result = "579 nM (active)"

[[record]]
molecule = "O=c1[nH]cnc2ccc([N+](=O)[O-])cc12"
result = "1630 nM (active)"

[[record]]
molecule = "CCn1c(=O)n(CC)c2cc(N)ccc21"
result = "inactive"

[[record]]
molecule = "N/C(=N/OC(=O)c1ccc(Cl)cc1)c1ncc([N+](=O)[O-])s1"
result = "1300 nM (active)"

[[record]]
molecule = "Cc1oc2c(c1C(=O)N1CCOCC1)C(=O)c1ccccc1C2=O"
result = "3260 nM (active)"

[[record]]
molecule = "COc1ccc2cc3cc(C(=O)Nc4ccccc4N4CCN(C)CC4)oc3nc2c1"
result = "2050 nM (active)"

[[record]]
molecule = "O=C(O)c1ccc(NC(=O)c2cc3ccccc3o2)cc1"
result = "6500 nM (active)"

[[record]]
molecule = "O=C(Nc1ccccc1)Nc1ccc(C(=O)N2CCCC2)cc1"
result = "5790 nM (active)"

[[record]]
molecule = "COc1ccc(C(=O)C(C)OC(=O)CNC(=O)C2CCCCC2)cc1 (stereo not drawn)"
result = "4600 nM (active)"

[[record]]
molecule = "COc1ccccc1-n1cc2c([N+](=O)[O-])cc([N+](=O)[O-])cc2n1"
result = "1630 nM (active)"

[[record]]
molecule = "Cc1ccccc1-c1nc2c(=O)n(C)c(=O)nc-2n(C)n1"
result = "115 nM (active)"

[[record]]
molecule = "O=c1cc[nH]c2ccc([N+](=O)[O-])cc12"
result = "4100 nM (active)"

[[record]]
molecule = "COc1ccc2oc(C(=O)OC(C)C(=O)NCc3ccccc3)c(C)c2c1 (stereo not drawn)"
result = "inactive"

[[record]]
molecule = "CCCC12CN3CC(C)(CN(C1)C3c1ccc([N+](=O)[O-])o1)C2=O (stereo not drawn)"
result = "1830 nM (active)"

[[record]]
molecule = "O=C(Nc1ccc2c(c1)nc1n2CCSC1)c1ccco1"
result = "4600 nM (active)"

[[record]]
molecule = "Cc1ccccc1NC(=O)c1ccc([N+](=O)[O-])o1"
result = "1830 nM (active)"

[[record]]
molecule = "CCN1CCN(Cc2ccc(NC(=O)Nc3ccccc3)cc2)CC1"
result = "9180 nM (active)"

[[record]]
molecule = "COc1cccc2c1C(CO)N1C(C#N)C3CC(C(=O)O)C(C1C2)N3C (stereo not drawn)"
result = "1160 nM (active)"

